Measured IC50 values are reported for all entries that follow.
# subjectOfTest: Mitogen-activated protein kinase 10 (Homo sapiens, UniProt P53779)
# Sequence (P53779 whole entry): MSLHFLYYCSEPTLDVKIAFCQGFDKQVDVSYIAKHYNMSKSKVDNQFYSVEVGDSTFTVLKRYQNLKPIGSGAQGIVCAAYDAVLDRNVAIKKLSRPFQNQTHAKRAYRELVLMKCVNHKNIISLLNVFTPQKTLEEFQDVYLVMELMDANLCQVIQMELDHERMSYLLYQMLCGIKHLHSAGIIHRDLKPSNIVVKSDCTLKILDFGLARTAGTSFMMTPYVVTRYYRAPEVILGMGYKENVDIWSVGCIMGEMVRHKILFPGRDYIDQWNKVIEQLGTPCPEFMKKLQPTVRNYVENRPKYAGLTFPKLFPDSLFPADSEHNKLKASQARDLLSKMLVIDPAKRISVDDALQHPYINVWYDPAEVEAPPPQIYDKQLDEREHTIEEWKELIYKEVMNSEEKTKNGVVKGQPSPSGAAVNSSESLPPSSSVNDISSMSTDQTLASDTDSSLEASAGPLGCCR
# assayComment: Dose response biochemical screening assay for inhibitors of c-Jun N-Terminal Kinase 3 (JNK3). [Related pubchem assays: 746 ]
property: IC50

- givenSmiles: "CCc1ccc2c(COC(=O)c3n[nH]c4ccccc34)cc(=O)oc2c1"
  property: "IC50"
  assayResult: "> 93.1 µM (not active)"
- givenSmiles: "CNC(=O)c1[nH]cnc1C(=O)Nc1cccc(OC)c1"
  property: "IC50"
  assayResult: "50.1 µM (not active)"
- givenSmiles: "COc1ccc(C(C)=O)cc1COC(=O)c1cc(C)oc1C"
  property: "IC50"
  assayResult: "61.8 µM (not active)"
- givenSmiles: "COCCN1Cc2cccc(C(=O)NCc3ccc4c(c3)OCO4)c2C1=O"
  property: "IC50"
  assayResult: "> 31 µM (not active)"

====

# assayComment: viability of HCT116 lacking mutant beta-catenin – cell-based, human colon tumor, dose response (AID 1045);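 note: HCT116 colon tumor cells with beta catenin knocked out; cells exposed to compound for 60 hours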
# Assay type: functional
Calls of active or inactive are those of the source.

- compound: "Cc1ccc(-n2nnnc2C(Cl)c2nnnn2-c2ccc(C)cc2)cc1"
  EC50: "17.5 µM (active)"
- compound: "COc1ccc(-c2[nH]ncc2/C=C(/C#N)C(=O)NC2CCCCCC2)cc1"
  EC50: "11.3 µM (active)"
- compound: "CCCCOC(=O)c1[nH]c2c(c1C)C(=O)CC(c1cc(OC)c(OC)c(OC)c1)C2 (centres undefined)"
  EC50: "58.8 µM (active)"
- compound: "CCN(CC)CCNC(=O)c1ccc2c(=O)n(C3CCCC3)c(=S)[nH]c2c1"
  EC50: "14.1 µM (active)"

====

Measured IC50 by item
# subjectOfTest: Induced myeloid leukemia cell differentiation protein Mcl-1 (Homo sapiens, UniProt Q07820)
# Sequence (Q07820 whole entry): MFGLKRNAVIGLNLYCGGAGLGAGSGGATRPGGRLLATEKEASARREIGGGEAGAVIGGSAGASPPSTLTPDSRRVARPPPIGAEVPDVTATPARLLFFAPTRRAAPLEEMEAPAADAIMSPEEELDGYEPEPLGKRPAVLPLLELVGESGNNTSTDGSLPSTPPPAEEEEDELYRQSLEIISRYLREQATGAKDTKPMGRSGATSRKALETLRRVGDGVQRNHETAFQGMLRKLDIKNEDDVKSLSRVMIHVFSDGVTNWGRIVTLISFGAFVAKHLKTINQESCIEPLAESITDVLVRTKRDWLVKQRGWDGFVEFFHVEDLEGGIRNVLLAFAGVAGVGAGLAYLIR
# Format: functional
Active and inactive are the calls of the source.

- givenSmiles: "CCOC(=O)c1c(C)oc2c1c(CN1CCN(C(=O)OCC)CC1)c(O)c1ccccc12"
  IC50: "3.95 µM (active)"
- givenSmiles: "Cc1[nH]c2ccccc2c1/C=N/Nc1ccc([N+](=O)[O-])cc1"
  IC50: "< 0.4 µM (active)"
- givenSmiles: "Cc1cc(C)c(S(=O)(=O)/N=C2/C=C(Sc3nc[nH]n3)C(=O)c3ccccc32)cc1C"
  IC50: "3.07 µM (active)"
- givenSmiles: "CCn1nc(C)c(/C=N/NC(=O)Cc2ccc(Cl)cc2)c1C"
  IC50: "< 0.4 µM (not active)"
- givenSmiles: "Nc1c(C(=O)NCc2ccco2)sc2nc3c(cc12)C(=O)CCC3"
  IC50: "3.38 µM (active)"
- givenSmiles: "CN(C)c1ccc(/C=C/c2ccc3c4ccccc4ccc3[n+]2-c2ccccc2)cc1"
  IC50: "4.64 µM (not active)"
- givenSmiles: "CCN(c1ccc(NC(=O)CCNC(=O)c2ccco2)cc1)C(C)C"
  IC50: "3.29 µM (not active)"
- givenSmiles: "CN(C)c1ccc(/C=c2\\sc3nc(-c4ccccc4)nn3c2=O)cc1"
  IC50: "5.67 µM (active)"
- givenSmiles: "CCOC(=O)C1CCN(c2nc(N)c3c(N)nc(SCC(=O)O)cc3c2C#N)CC1"
  IC50: "4.87 µM (active)"

// provenance: ChEMBL document CHEMBL1201862
